The origin of these recorded values is PubChem BioAssay (NCI).

Overview of reported growth across a group of molecules:
- System: NCI-H322M lung
- ASSAY_COMMENT: NCI-60 one-dose screen, 48 h (100 = growth as untreated, 0 = no growth, -100 = all killed)
- CONDITIONS: 10 µM unless noted
- Procedure: Growth inhibition of the NCI-H322M human Non-Small Cell Lung tumor cell line is measured as a screen for anti-cancer activity. Cells are grown in 96 well plates and exposed to the test compound for 48 hours. Compounds are tested at a single concentration, which is 10^-5 M for most compounds. The reported endpoint is percent growth (GI% or GIPRCNT), where numbers from 0 - 100% represent growth inhibition, and numbers from -100% - 0 represent cell death. […]
Compounds without any hit were thinned out: in the full panel of roughly 83,000, 20% have a hit.
MEASUREMENT_LABEL: growth (%)

C/C(=N\NC(=O)Cn1c(-c2ccc(S(C)(=O)=O)cc2)nc2cc(Cl)ccc21)c1ccc(Cl)cc1 | 86
C=C1C(=O)O[C@H]2[C@H]1CC/C(COC(=O)NCc1ccc(Cn3c(=O)sn(CCCCl)c3=O)cc1)=C\CC[C@@]1(C)O[C@@H]21 | 88.8
c1ccc2[nH]c(SSc3nc4ncncc4[nH]3)nc2c1 | 73.5

----------
- Test system: U251 CNS
- ASSAY_COMMENT: NCI-60 one-dose screen, 48 h (100 = growth as untreated, 0 = no growth, -100 = all killed)
- CONDITIONS: 10 µM unless noted
About 83,000 compounds went through this panel and 20% of them were active in at least one assay; those are over-represented in the sample as a whole.
Overview of reported growth across a group of molecules:
MEASUREMENT_LABEL: growth (%)

N#Cc1c(NC(=O)c2ccccc2I)sc2c1CCCC2 | 29.7
N=C(N)c1ccc(-c2ccc(-c3ccc(Cl)cc3Cl)o2)nc1 | -37.3
CNC(=O)c1cc(Oc2ccc3nc(NC(=O)Nc4cc(C(F)(F)F)cc(C(F)(F)F)c4)sc3c2)ccn1 | -81.8
C=C(C)[C@@H]1CC[C@]2(CN)CC[C@]3(C)[C@H](CC[C@@H]4[C@@]5(C)CCC(N)[C@@](C)(CO)[C@@H]5CC[C@]43C)[C@@H]12 (stereo not given in full) | -93.8
C=C1C(=O)O[C@H]2[C@H]1CC/C(COC(=O)NCc1ccc(Cn3c(=O)sn(CCCCl)c3=O)cc1)=C\CC[C@@]1(C)O[C@@H]21 | 57.7

----------
- Tested on: MALME-3M melanoma
- ASSAY_COMMENT: NCI-60 one-dose screen, 48 h
- CONDITIONS: 10 µM unless noted
The panel holds about 83,000 compounds, 20% with a hit somewhere; the sample as a whole holds those more often. The source made the active and inactive calls. Rule for the calls: active = growth percent below 10; inactive = the rest.
Labels: active, inactive

NC(=S)c1csc(CCNC(=O)c2ccccc2)n1 | inactive
C=C(Cl)COC(=O)C(C)(C)O | inactive
COc1cc2c(cc1OC)-c1ccc3cc4c(cc3c1N(CCCn1ccnc1)C2)OCO4 | inactive
O=C1Nc2ccccc2/C1=N/N=C/c1ccsc1 | inactive
O=C1CSC(c2ccccc2O)N1c1nnc(Cn2cnnc2)o1 (stereo unspecified) | inactive
CC(C)n1nc(C#Cc2cccc3cc(-c4cccc(C(F)(F)F)c4)ncc23)c2c(N)ncnc21 | inactive
CNC(=O)NCC1OC(n2cnc3c(NC(=O)Nc4ccccc4)ncnc32)C2OC(C)(C)OC12 (stereo unspecified) | inactive
CCOc1ccc2nc(-c3cccc(OCC(=O)NC(C)C)c3)nc(Nc3ccc(-c4cn[nH]c4)cc3)c2c1 | active
C=C1c2c(C)nn(-c3ccc(N)cc3)c2N(C)C23CC1C1(C)c4c(C)nn(-c5ccc(N)cc5)c4N(C)C(C)(CC12)C3 (stereo unspecified) | inactive
Cc1c(C(=O)O)nnn1-c1nccs1 | inactive
Cn1ccnc1C(=O)/C=C/c1ccc(C(=O)Nc2ccc(S(F)(F)(F)(F)F)cc2)cc1 | inactive
O=c1oc2ccc(Cl)cc2cc1-c1cs/c(=N/N=C\c2ccc(Cl)cc2)n1/N=C/c1ccc(Cl)cc1 | inactive
COc1ccc(Cn2cnc3cc(C(=O)Nc4cccc5ccccc45)ccc32)c(OC)c1 | inactive
Cn1cc(-c2ccc3nc(-c4ccc(CC(=O)Nc5cc(C(C)(C)C)no5)cc4)cnc3c2)cn1 | active
N=C(N)c1ccc(-c2ccc(-c3ccc(Cl)cn3)s2)cc1 | inactive
COc1cc(C2CC(c3ccc(Nc4nc(Nc5ccc(F)cc5)nc(Nc5ccc(Cl)cc5)n4)cc3)=NN2C(C)=O)cc(OC)c1OC (stereo unspecified) | inactive

----------
- Test system: NCI-H522 lung
- ASSAY_COMMENT: NCI-60 one-dose screen, 48 h (100 = growth as untreated, 0 = no growth, -100 = all killed)
- CONDITIONS: 10 µM unless noted
The panel holds about 83,000 compounds, 20% with a hit somewhere; the sample as a whole holds those more often.
MEASUREMENT_LABEL: growth (%)

CCCCN1CCN(c2ccc3nc(-c4ccc5nc(-c6ccc(OCC)c(OCC)c6)[nH]c5c4)[nH]c3c2)CC1 | -32.2
N[C@@H]1CCC[C@H]1NCCCCN1C(=O)c2cccc3cccc(c23)C1=O | 65.8
CC(=O)c1sc(-c2ccccc2)cc1N | 72.5
Clc1ccc2c(NCCCN3CCN(c4nc(N5CCOCC5)nc5ccccc45)CC3)ccnc2c1 | 13
CCOC(=O)c1nnn(-c2ccccc2)c1C1=CN(C)CCC1 | 86.7
CC(C)c1ccc(C(=O)OC(=O)c2ccc(C(C)C)cc2)cc1 | 85.3
COc1ccc(/C(C)=C(\c2ccc(Cl)cc2)c2ccc(OCCCN(C)C)cc2)cc1F | 77
COc1ccc(-n2ncn(CCCCCCn3cnn(-c4ccc(OC)cc4)c3=O)c2=O)cc1 | 76.3
COc1ccc(-c2nnc(-c3ccc4c(c3)nc(-c3ccccc3)n4C3CCCCC3)o2)cc1 | 17.6
Cc1ccc(O)c(C(=O)c2ccccc2Cl)c1 | 102
N#C/C(=C\c1ccc(Br)cc1)n1nnc2cc(Cl)c(Cl)cc21 | 6.95
COc1ccc(-c2nc3sc4c(c3c(=O)[nH]2)CCCC4)c2ccccc12 | 1.5
O=S(=O)(NCCNc1cc(-c2c(-c3cccc(O)c3)nc3sccn23)ccn1)c1ccc(Br)cc1 | 66.1

----------
- Tested on: RXF 393 renal
- ASSAY_COMMENT: NCI-60 one-dose screen, 48 h (100 = growth as untreated, 0 = no growth, -100 = all killed)
- CONDITIONS: 10 µM unless noted
The panel holds about 83,000 compounds, 20% with a hit somewhere; the sample as a whole holds those more often.
MEASUREMENT_LABEL: growth (%)

CCNCCNc1cc(-c2ccc(C#N)cc2)c(C#N)c2nc3ccccc3n12 | -10.6
CCOC(=O)C1=C(C)NC(SCc2nnc(-c3ccc(Cl)cc3)o2)=NC1c1ccc(Cl)cc1Cl (centres undefined) | 43.4
O=C(NCc1cccnc1)c1cc(-c2csc3c(=O)cc(N4CCOCC4)oc23)cc2c1OCCO2 | 40.6
Cc1ccc2c(n1)C(=O)C(Oc1ccc(F)cc1)=CC2=O | 107
COc1ccc(C2CC(c3cnccn3)=NN2)cc1OC (centres undefined) | 100
COc1cc(C(=O)Nc2cc(O)c(CC=C(C)C)c(O)c2)cc2c1O[C@]1(C)CC[C@@H](O)C(C)(C)[C@H]1C2 | -18.5
N=C(N)c1ccc(-c2ccc(-c3ccc(Cl)c(Cl)c3)o2)cc1 | 60.2
CC(=O)Nc1ccc2c(c1)Cc1c(F)cccc1-2 | 99
CCOc1cc(N)ccc1C(=O)NCCCN(CC)CC | 90.7
O=c1cc(-c2ccc(OCc3ccccc3)cc2)oc2c(I)c(OCc3ccccc3)cc(OCc3ccccc3)c12 | 139
COc1cc(/C=C/C(=O)c2cccc(-n3cc(-c4ccccc4)[nH]c3=O)c2)cc(OC)c1OC | -69.7
O=C1CC(c2ccc3c(c2)OCO3)Nc2cc3c(cc21)OCO3 (centres undefined) | -11.2
COc1cc2nc(Nc3ccc(F)cc3)nc(N)c2cc1OC | 54.5
Cc1ccc(NSc2ccccc2[N+](=O)[O-])cc1 | -6.02
O=C(CC12CC3CC(CC(C3)C1)C2)NCCOCCOCCNC(=O)c1cc2c(o1)C(=O)c1ccccc1C2=O | -92.3
O=C1Nc2ccc(Cl)cc2/C1=N/N=C/c1c[nH]c2ccccc12 | 62.7
Cc1cc(-c2ccccc2)cc(SC#N)[n+]1[O-] | 49.6
CCN(CCO)CC(=O)c1cc(Cl)cc(Cl)c1Cl | 93.7
COc1cc(-c2ccc(-c3ccc(C(=N)N)nc3)s2)cc(OC)c1OC | 77.1
Cc1cnc(Nc2ccc(N3CCN(C)CC3)cc2)nc1Nc1ccc(Cl)c(NS(=O)(=O)C(C)(C)C)c1 | -78.2
CCCCCOC(=O)c1ccc(NC(=O)CNCC(C)C)cc1 | 89.7
Cc1[nH]c(-c2nc3ccccc3[nH]2)c(C)c1C(=O)N1CCOCC1 | 93.6
Cc1ccc(-n2nnc(C3=NCCc4c3[nH]c3ccc(Cl)cc43)c2C)cc1 | 102
CCCNCC(=O)Nc1ccc(C(=O)OC(C)(C)CC)cc1 | 116
